System: SK-MEL-5 melanoma
test method notes: NCI tumour cell line growth inhibition, 48 h
measure: log10 of TGI (log10 of the value in µM)

{"compound": "N/C(=N/S(=O)(=O)c1cc(C(=O)Nc2ccc(F)cc2)c(Cl)cc1SCc1ccccc1)Nc1ccccc1O", "log10 of TGI": 0.66}
{"compound": "CCN(CC)CCCC(C)Nc1ccnc(/C=C/c2ccc(Cl)cc2)c1 (stereo not given)", "log10 of TGI": 0.79}
{"compound": "Cc1cc(S(=O)(=O)NC2=NCC(C)(C)CN2)c(S)cc1Cl", "log10 of TGI": 1.53}
{"compound": "Cc1nn(-c2ccccc2)c2nc(C)n(-c3ccc(Br)cc3)c(=O)c12", "log10 of TGI": 1.05}
{"compound": "CCOC(=O)c1cc2c(n1Cc1cc(OC)cc(OC)c1)-c1oncc1CC2", "log10 of TGI": 1.31}
{"compound": "COc1cc(-c2ccccc2)cn2c1nc1ccccc12", "log10 of TGI": 1.58}
{"compound": "COc1ccc(NC(=O)c2cccc(C3CCc4c(cc(OC)c(OC)c4OC)O3)c2)cc1 (stereo not given)", "log10 of TGI": 0.59}
{"compound": "CCS(=O)(=O)N1CCN(c2ccc(Nc3ncc(C(N)=O)c(NC4CC4)n3)cc2)CC1", "log10 of TGI": 1.42}
{"compound": "Cc1ccc2c(c1)CC1(C2)Cc2ccc(C)cc2C1=O (stereo not given)", "log10 of TGI": 1.41}
{"compound": "CN(C)CCNC(=O)c1cccc2c1nc(-c1ccncc1)c1ccccc12", "log10 of TGI": 0.83}
{"compound": "Cc1ccc(/C(=C/C=C(C#N)C#N)Sc2nc3ccccc3s2)cc1", "log10 of TGI": 1.42}
{"compound": "Cc1cc(OCc2nn(CN3CCN(C)CC3)c(=S)n2/N=C/c2ccc(F)cc2)ccc1Cl", "log10 of TGI": 1.49}
{"compound": "CCC(C(=O)[C@@H](C)[C@@H](O)[C@H](C)[C@@H]1O[C@@H]([C@@H](CC)C(=O)ONC(=O)c2ccccc2)CC[C@@H]1C)[C@H]1O[C@]2(C=CC(=O)[C@]3(CC[C@@](C)([C@H]4CC[C@](O)(CC)[C@H](C)O4)O3)O2)[C@H](C)C[C@@H]1C (stereo not given in full)", "log10 of TGI": -0.44}
{"compound": "Nc1cc(N)c2nc(-c3ccccc3)c(NCc3ccc(Cl)c(Cl)c3)nc2c1", "log10 of TGI": 1.03}
{"compound": "CCOC(=O)CCSC1=CC(=O)c2nc3ccccc3c3ccnc1c23", "log10 of TGI": 1.48}
{"compound": "CCOC(OC1=C(C#N)CCCC1)C(CC)[Se]c1ccccc1[N+](=O)[O-] (stereo not given)", "log10 of TGI": 1.46}
{"compound": "CC(=O)O[C@H]1CC[C@]2(C)C3C(=O)C[C@]4(C)[C@@H](C(C)CCC(=O)O)CC[C@@]4(C)[C@@H]3CC[C@H]2C1(C)C (stereo not given in full)", "log10 of TGI": 1.24}
